Form field: growth, % of control (one value per entry).
- TEST PROTOCOL: qHTS profiling of the MIPE4 collection as inhibitors of Plasmodium falciparum (HB3) proliferation (AID 743347);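 also: plate controls were DMSO vehicle wells for no effect and artemisinin wells for full effect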
- TEST PARAMETERS: P. falciparum HB3 in erythrocytes, SYBR Green DNA, 72 h; at 28.5 µM (top of the series) unless noted
- Procedure: Plasmodium falciparum is a virulent malarial parasite that kills 1-2 million people worldwide each year. […] Because mature erythrocytes lack DNA, only Plasmodium-derived DNA is detected. The SYBR Green viability assay was adapted from a method described previously (Plouffe et al., 2008). […] The following morning, fluorescence intensity at 485(14) nm excitation and 535(25) nm emission wavelengths was measured on an EnVision (Perkin Elmer) plate reader. […]
Kindly provide the numeric value in % only, without the unit symbol.

These solved cases illustrate the format of a correct answer.
O=C1CCC(N2C(=O)c3ccccc3C2=O)C(=O)N1 (stereo not given) : 114
O=c1n(CCCN2CCN(c3cccc(Cl)c3)CC2)nc2ccccn12 : 92.5
CCCc1nn(C)c2c(=O)[nH]c(-c3cc(S(=O)(=O)N4CCN(C)CC4)ccc3OCC)nc12 : 24.6
Cc1ccccc1C(C(=O)NC1CCCC1)N(C(=O)Cn1cnc2ccccc21)c1cccc(F)c1 (stereo not given) : 97.9
NNCCc1ccccc1 : 96.6
CC(C)OC(=O)C1=CN(C(=O)c2ccc(F)c(F)c2)CC(C)(C)c2c1[nH]c1ccccc21 : 46.5
CCc1cc(Nc2nccc(-c3c(-c4ccc(OC)c(C(=O)Nc5c(F)cccc5F)c4)nc4ccccn34)n2)c(OC)cc1N1CCC(N2CCN(S(C)(=O)=O)CC2)CC1 : 4.27
OCCn1cc(-c2cnc3nnn(Cc4ccc5ncccc5c4)c3n2)cn1 : 47.5
Clc1cccc(Cl)c1NC1=NCCN1 : 70.5

Consider the compound `Cc1ccc(N(CC2=NCCN2)c2cccc(O)c2)cc1` . State its measured growth, % of control.
95.9

====

- TEST PROTOCOL: Quantitative High-Throughput drug screen in 47 multiple myeloma cell lines against the NCATS MIPE library collection: FR4_PLB cell viability assay (AID 1918924; also: nearly all actives have a fitted effect of over 35% in size)
- TEST PARAMETERS: FR4_PLB myeloma cells viability, CellTiter-Glo ATP, 48 h; series mostly up to 45.8 µM
Records with an inconclusive call do not appear. Activity calls are given as the source filed them. Calls come from the whole dose curve; as a rule, active = well fitted cell-killing curve with a large enough effect; inconclusive = small, poorly fitted or top-dose-only effect, or effect the other way; inactive = no such curve, though single readings can be large or run the other way.
Reply using exactly one outcome from TRUE for active, FALSE for inactive

CCN(CC)CCCC(C)Nc1ccnc2cc(Cl)ccc12 (stereo unspecified) : FALSE
C[C@]12CC[C@H](O)CC1=CC[C@@H]1[C@H]2CC[C@]2(C)C(c3cccnc3)=CC[C@H]12 : FALSE
CC(C)OC(=O)C1=CN(C(=O)c2ccc(F)c(F)c2)CC(C)(C)c2c1[nH]c1ccccc21 : FALSE
NCCCC(N)(C(=O)O)C(F)F (stereo unspecified) : TRUE
COc1ccc(CC2=NN3C([C@@H](CCc4ccccc4)[C@@H](C)O)=NC(C)C3C(=O)N2)cc1OC (stereo partly specified) : FALSE

Each molecule tested received a call. Report the one for `Cc1cn[nH]c1` .
TRUE

Each molecule tested received a call. Report the one for `Cc1c(CCOc2ccc(C(=O)O)cc2)c2cc(Cl)ccc2n1C(c1ccccc1)c1ccccc1` .
FALSE

====

- TEST PROTOCOL: Quantitative High-Throughput drug screen in 47 multiple myeloma cell lines against the NCATS MIPE library collection: MM1R_ATCC cell viability assay (AID 1918981); also: potency is read from the fitted curve at half-maximal effect; nearly all actives have a fitted effect of over 35% in size
- TEST PARAMETERS: MM1R multiple myeloma cells, CellTiter-Glo viability, 48 h; series mostly up to 45.8 µM
Results filed as inconclusive are left out. The source made the active and inactive calls. The call rests on the fitted dose curve; in most records, active means well fitted cell-killing curve with a large enough effect; inconclusive means small, poorly fitted or top-dose-only effect, or effect the other way; inactive means no such curve, though single readings can be large or run the other way.
Form field: Potency (one value per entry).

These solved cases illustrate the format of a correct answer.
CCOC(=O)C1=C[C@]2(CC)CCCN3CCc4c(n1c1ccccc41)[C@@H]32 : 11.8 µM (active)
CO[C@@H]1[C@H](N(C)C(=O)c2ccccc2)C[C@H]2O[C@]1(C)n1c3ccccc3c3c4c(c5c6ccccc6n2c5c31)C(=O)NC4 : 2.09 µM (active)

Turning to the following compound.
Consider the compound `Cc1cc(Nc2nc(N[C@@H](C)c3ncc(F)cn3)ncc2Cl)n[nH]1` . State its measured Potency.
26.4 µM (active)

====

- STUDY TARGET: Glucagon-like peptide 1 receptor (Homo sapiens) (UniProt P43220)
- Sequence (P43220 whole entry, looked up): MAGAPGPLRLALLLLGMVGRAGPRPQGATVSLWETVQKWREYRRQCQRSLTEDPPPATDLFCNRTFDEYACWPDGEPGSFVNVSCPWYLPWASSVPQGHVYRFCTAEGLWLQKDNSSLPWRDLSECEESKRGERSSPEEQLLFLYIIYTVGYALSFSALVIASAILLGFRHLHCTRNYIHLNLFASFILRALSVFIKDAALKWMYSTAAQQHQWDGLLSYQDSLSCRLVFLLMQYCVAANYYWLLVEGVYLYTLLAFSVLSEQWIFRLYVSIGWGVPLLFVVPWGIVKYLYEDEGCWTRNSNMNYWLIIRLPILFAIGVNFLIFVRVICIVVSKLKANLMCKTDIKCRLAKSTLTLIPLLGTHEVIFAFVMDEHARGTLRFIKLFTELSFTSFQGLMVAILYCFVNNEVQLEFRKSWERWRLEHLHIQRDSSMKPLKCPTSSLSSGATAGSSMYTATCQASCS
- TEST PROTOCOL: qHTS of GLP-1 Receptor Agonists: LOPAC Validation (AID 624148);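 also: luminescence from a luciferase reporter switched on by cAMP; 0% is about no effect; higher luminescence signal means agonism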
- TEST PARAMETERS: GLP-1R agonist cell assay; series mostly up to 46.1 µM
Records with an inconclusive call do not appear. Activity calls are given as the source filed them. The call rests on the fitted dose curve; in most records, active means well fitted curve in the direction sought with a large enough effect; inconclusive means small, poorly fitted or top-dose-only effect, or another doubt; inactive means no such curve, though single readings can be large or run the other way.
PROPERTY MEASURED: outcome

Nc1nc2c(ncn2COCCO)c(=O)[nH]1 : inactive
CC(=O)Oc1ccccc1C(=O)O : inactive
OC(CCN1CCCCC1)(c1ccccc1)C1CC2C=CC1C2 (stereo unspecified) : inactive
CCOC(=O)C1=C[C@]2(CC)CCCN3CCc4c(n1c1ccccc41)[C@@H]32 : inactive
Cc1[nH]c(=O)c(C#N)cc1-c1ccncc1 : inactive
NNCCc1ccccc1 : inactive

Consider the compound `Cc1cc2c(C(C)C)c(O)c(O)c(C=O)c2c(O)c1-c1c(C)cc2c(C(C)C)c(O)c(O)c(C=O)c2c1O` . State its measured outcome.
inactive

Consider the compound `NS(=O)(=O)c1cc2c(cc1Cl)NC=NS2(=O)=O` . State its measured outcome.
inactive

Consider the compound `Cc1oncc1C(=O)Nc1ccc(C(F)(F)F)cc1` . State its measured outcome.
inactive

Consider the compound `O=c1n(CCCN2CCN(c3cccc(Cl)c3)CC2)nc2ccccn12` . State its measured outcome.
inactive

Consider the compound `C1COC(NC(C2CC2)C2CC2)=N1` . State its measured outcome.
inactive

Consider the compound `CN1CCN(CCCN2c3ccccc3Sc3ccc(C(F)(F)F)cc32)CC1` . State its measured outcome.
inactive

Consider the compound `O=NN(CCCl)C(=O)NCCCl` . State its measured outcome.
inactive

Consider the compound Cc1ccccc1C(OCCN(C)C)c1ccccc1 (stereo unspecified) . State its measured outcome.
inactive

Consider the compound `CC(C)(Sc1ccc(CCN(CCCCC2CCCCC2)C(=O)NC2CCCCC2)cc1)C(=O)O` . State its measured outcome.
inactive

Consider the compound `O=c1[nH]cnc2[nH]ncc12` . State its measured outcome.
inactive

Consider the compound `N=c1nc(N2CCCCC2)cc(N)n1O` . State its measured outcome.
inactive

Consider the compound NCCCC(N)(C(=O)O)C(F)F (stereo unspecified) . State its measured outcome.
inactive

Consider the compound CC(C)NCC(O)COc1ccc(COCCOC(C)C)cc1 (stereo unspecified) . State its measured outcome.
inactive

Consider the compound `O=C(Nc1nc2ccccc2n1CCN1CCOCC1)c1cccc([N+](=O)[O-])c1` . State its measured outcome.
inactive

Consider the compound `Nc1nc2ccc(OC(F)(F)F)cc2s1` . State its measured outcome.
inactive

====

- TEST PROTOCOL: qHTS of pediatric cancer cell lines to identify multiple opportunities for drug repurposing: Primary screen for DAOY cells (AID 1347090);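 also: plate controls were DMSO for no effect and bortezomib for full effect; nearly all actives have a fitted effect of over 55% in size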
- TEST PARAMETERS: DAOY medulloblastoma viability, CellTiter-Glo luminescence, 48 h; series mostly up to 46 µM
- Protocol: Drug repurposing or repositioning has been offered as a strategy for drug development in oncology programs. […] [1] Shen, M et al. Quantitative high-throughput phenotypic screening of pediatric cancer cell lines identifies multiple opportunities for drug repurposing. […] Cells were assayed in growth media at a density of 500-1,000 cells/well. […] After a 15 min incubation at room temperature, samples were analyzed for luminescence intensity using a ViewLux High-throughput CCD imager equipped with clear filters.
Records with an inconclusive call do not appear. Activity calls are given as the source filed them. The call rests on the fitted dose curve; in most records, active means well fitted cell-killing curve with a large enough effect; inconclusive means small, poorly fitted or top-dose-only effect; inactive means flat fitted curve, though single readings scatter.
Reply using exactly one outcome from active, inactive

Each compound tested received a call. Report the one for `Cc1cccc(-c2nn(C(=S)Nc3ccccc3)cc2-c2ccnc3ccccc23)n1` .
inactive

====

- TEST PROTOCOL: qHTS of pediatric cancer cell lines to identify multiple opportunities for drug repurposing: Primary screen for A673 cells (AID 1347092); also: nearly all actives have a fitted effect of over 45% in size
- TEST PARAMETERS: A673 Ewing sarcoma viability, CellTiter-Glo ATP luminescence, 48 h; series mostly up to 46 µM
Results filed as inconclusive are left out. Calls of active or inactive are those of the source. Calls follow the shape of the dose curve; as a rule, active = well fitted cell-killing curve with a large enough effect; inconclusive = small, poorly fitted or top-dose-only effect; inactive = no such curve, though single readings can be large or run the other way.
Reply using exactly one outcome from 1 = active, 0 = inactive

Solved entries:
O=C(c1cc(Cc2n[nH]c(=O)c3ccccc23)ccc1F)N1CCN(C(=O)C2CC2)CC1 : 1
Nc1nc2c(ncn2COCCO)c(=O)[nH]1 : 0
Oc1ccc(C2CNCCc3c2cc(O)c(O)c3Cl)cc1 (stereo not given) : 0
Cc1cc(C=c2sc3nc4ccccc4n3c2=O)c(C)n1-c1ccccc1 : 0
Cc1c(C)c2c(c(C)c1O)CCC(C)(COc1ccc(CC3SC(=O)NC3=O)cc1)O2 (stereo not given) : 0

Each compound tested received a call. Report the one for `Cc1c(CCOc2ccc(C(=O)O)cc2)c2cc(Cl)ccc2n1C(c1ccccc1)c1ccccc1` .
1

Each compound tested received a call. Report the one for `Cc1c(CN2CCN(C(=O)C(C)C)CC2)sc2c(N3CCOCC3)nc(-c3cnc(N)nc3)nc12` .
1

Each compound tested received a call. Report the one for `Cc1cnc(NC(=O)C2=C(O)c3ccccc3S(=O)(=O)N2C)s1` .
0

Each compound tested received a call. Report the one for `COc1nc(-c2ccc3c(c2)OCO3)n(-c2ccc(NC(=O)CSc3ccccc3)cc2)n1` .
0

Each compound tested received a call. Report the one for NC(=O)C1CCCc2c1[nH]c1ccc(Cl)cc21 (stereo not given) .
1

Each compound tested received a call. Report the one for CCC(C)n1ncn(-c2ccc(N3CCN(c4ccc(OC[C@H]5CO[C@](Cn6cncn6)(c6ccc(Cl)cc6Cl)O5)cc4)CC3)cc2)c1=O (stereo not given in full) .
0

Each compound tested received a call. Report the one for `CCC(C)(C)C(=O)O[C@H]1C[C@@H](C)C=C2C=C[C@H](C)[C@H](CC[C@@H]3C[C@@H](O)CC(=O)O3)[C@H]21` .
1

Each compound tested received a call. Report the one for `CN(C)C(=O)c1ccc(S(=O)(=O)c2ccc(NC(=O)[C@@](C)(O)C(F)(F)F)c(Cl)c2)cc1` .
1

Each compound tested received a call. Report the one for `OC[C@H](Cc1ccccc1)Nc1nc(Oc2ccc3c(c2)CCC3)nc2c1ncn2Cc1ccc(-c2ccccc2)cc1` .
0

Each compound tested received a call. Report the one for `COc1cc(Nc2ncc3c(n2)-c2ccc(Cl)cc2C(c2c(F)cccc2OC)=NC3)ccc1C(=O)O` .
0

FYI, the data here is from PubChem BioAssay (NCATS).
